# MEASURED_TARGET: T1, soluble Homo sapiens CD131 comprising a C-terminal 6xHis tag (human, UniProt P32927 17-438)
# T1 construct: truncated after Ser438, C-terminal 6xHis; also called shCD131; shβc
# T1 sequence: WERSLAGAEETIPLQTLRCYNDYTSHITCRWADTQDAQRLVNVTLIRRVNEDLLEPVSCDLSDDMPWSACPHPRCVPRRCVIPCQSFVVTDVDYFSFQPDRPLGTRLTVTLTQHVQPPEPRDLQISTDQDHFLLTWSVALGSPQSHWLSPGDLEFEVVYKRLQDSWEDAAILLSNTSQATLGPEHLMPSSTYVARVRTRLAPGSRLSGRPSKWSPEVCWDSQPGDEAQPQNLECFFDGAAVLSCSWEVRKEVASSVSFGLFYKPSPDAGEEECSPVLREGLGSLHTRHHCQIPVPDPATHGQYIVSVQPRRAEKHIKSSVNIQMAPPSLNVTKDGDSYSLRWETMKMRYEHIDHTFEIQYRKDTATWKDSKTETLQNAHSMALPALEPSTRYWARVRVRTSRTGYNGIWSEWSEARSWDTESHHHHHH
# PROTOCOL: SPR, Fab over captured shCD131
Examples of binders with documented koff follow.
Kindly answer with a numeric value in s⁻¹, unit omitted.

Example entries and their recorded answers appear below.
[
  {
    "BINDER": "9A2-VR24.84 Fab (Fab, V domains shown, recombinant Fab) VH: EVQLLESGGGLVQPGGSLRLSCAASGFTFPWYRVHWVRQAPGKGLEWVSSIHTHRPWTYYADSVKGRFTISRDNSKNTLYLQMNSLRAEDTAVYYCARFYDSFFDIWGQGTMVTVSS VL: DIQMTQSPSSVSASVGDRVTITCRASQGISSWLAWYQQKPGKAPKLLIYAASSLQSGVPSRFSGSGSGTDFTLTISSLQPEDFATYYCQQANSFPITFGQGTRLEIKR",
    "koff [s⁻¹]": 0.000418
  },
  {
    "BINDER": "9A2-VR24.91 Fab (Fab, V domains shown, recombinant Fab) VH: EVQLLESGGGLVQPGGSLRLSCAASGFTFPWYRVHWVRQAPGKGLEWVSSIHTHRQVTYYADSVKGRFTISRDNSKNTLYLQMNSLRAEDTAVYYCARFYDSFFDIWGQGTMVTVSS VL: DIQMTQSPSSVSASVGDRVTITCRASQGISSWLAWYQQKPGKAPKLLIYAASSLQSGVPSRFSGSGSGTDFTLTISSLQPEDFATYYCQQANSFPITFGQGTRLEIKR",
    "koff [s⁻¹]": 0.000448
  }
]

Req: Give its koff value. Item: 9A2-VR39.110 Fab (Fab, V domains shown, recombinant Fab) VH: EVQLLESGGGLVQPGGSLRLSCAASGFTFVWYHHIWVRQAPGKGLEWVSSINGRGRVTYYADSVKGRFTISRDNSKNTLYLQMNSLRAEDTAVYYCARFYDSFFDIWGQGTMVTVSS VL: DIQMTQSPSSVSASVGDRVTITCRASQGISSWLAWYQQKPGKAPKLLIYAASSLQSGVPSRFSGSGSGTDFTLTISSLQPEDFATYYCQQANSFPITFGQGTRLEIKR
Resp: 0.00039
